tested on: parent strain (SAWy518)
Field: label. Allowed values: 1 (Offscreen_42hr < 0.9) or 0 (Offscreen_42hr >= 0.9).

Compound	Category Label
CO[C@H]1C[C@@H]2CC[C@@H](C)[C@@](O)(O2)C(=O)C(=O)N2CCCC[C@H]2C(=O)O[C@H]([C@H](C)C[C@@H]2CC[C@@H](O)[C@H](OC)C2)CC(=O)[C@H](C)/C=C(\C)[C@@H](O)[C@@H](OC)C(=O)[C@H](C)C[C@H](C)/C=C/C=C/C=C/1C [Rapamycin]	1
O=C(O)Cc1ccc(-c2ccccc2)cc1	1

# input for lookup
Exam item: Would you kindly verify if Offscreen_42hr of C=CCOC(Cn1ccnc1)c1ccc(Cl)cc1Cl (centres unmarked) is strictly less than 0.9?
Marked response: 0

---

tested on: parent strain (SAWy518)
Field: label. Allowed values: criterion met (Offscreen_42hr < 0.9) or criterion not met (Offscreen_42hr >= 0.9).

Record excerpt, results attached:
Compound	Category Label
OC(Cn1cncn1)(Cn1cncn1)c1ccc(F)cc1F [FLUCONAZOLE]	criterion not met
CCN(CC)C(=O)C1(c2ccccc2)CC1CN (stereo not shown)	criterion not met
Oc1ccc(Nc2nc(-c3ccc(Cl)cc3)cs2)cc1	criterion met
Oc1c(Cl)cc(Cl)c2cccnc12	criterion met
O=c1c(-c2ccc(O)cc2)coc2cc(O)cc(O)c12	criterion not met
CC(C)(C)C(=O)C(Oc1ccc(Cl)cc1)n1cncn1 (stereo not shown)	criterion met
N#CC(=C(\N)Sc1ccccc1N)/C(C#N)=C(/N)Sc1ccccc1N	criterion not met
CCCN1CCCC[C@H]1C(=O)Nc1c(C)cccc1C	criterion not met

# input for lookup
Exam item: Would you kindly verify if Offscreen_42hr of O=c1c(O)c(-c2ccc(O)c(O)c2)oc2cc(O)cc(O)c12 [Quercetin (Sophoretin)] is strictly less than 0.9?
Marked response: criterion not met

---

system: parent strain (SAWy518)
Label not fulfilled if Offscreen_42hr falls below 0.9; label fulfilled in every other case.

Compound	Category Label
CC[C@@H](C(=O)[C@@H](C)[C@@H](O)[C@H](C)[C@@H]1O[C@@H]([C@@H](CC)C(=O)O)CC[C@@H]1C)[C@H]1O[C@]2(C=C[C@@H](O)[C@]3(CC[C@@](C)([C@H]4CC[C@](O)(CC)[C@H](C)O4)O3)O2)[C@H](C)C[C@@H]1C	fulfilled
COc1cccc2c1[C@@H]1CN(CCCCn3c(=O)[nH]c4c(sc5ncc(-c6ccccc6)nc54)c3=O)C[C@@H]1CO2	fulfilled
C=CCOC(Cn1ccnc1)c1ccc(Cl)cc1Cl.O=S(=O)(O)O (centres unmarked) [ENILCONAZOLE SULFATE]	fulfilled

Exam item: Kindly determine if Offscreen_42hr recorded for O=C(/C=C/c1ccc(O)cc1)c1ccc(O)cc1O is above or exactly 0.9.
Marked response: fulfilled

Exam item: Moving on to CO[C@H]1C[C@@H]2CC[C@@H](C)[C@@](O)(O2)C(=O)C(=O)N2CCCC[C@H]2C(=O)O[C@H]([C@H](C)C[C@@H]2CC[C@@H](OC(=O)C(C)(CO)CO)[C@H](OC)C2)CC(=O)[C@H](C)/C=C(\C)[C@@H](O)[C@@H](OC)C(=O)[C@H](C)C[C@H](C)/C=C/C=C/C=C/1C
Marked response: not fulfilled

Exam item: Moving on to O=C1NC(=O)/C(=C\c2cccc(C(F)(F)F)c2)S1
Marked response: not fulfilled

Exam item: Moving on to CC(=O)[C@]1(O)Cc2c(O)c3c(c(O)c2[C@@H](O[C@H]2C[C@H](N)[C@H](O)[C@H](C)O2)C1)C(=O)c1ccccc1C3=O [Idarubicin]
Marked response: not fulfilled

Exam item: Moving on to OC(Cn1cncn1)(Cn1cncn1)c1ccc(F)cc1F [Fluconazole]
Marked response: fulfilled

Exam item: Moving on to Cc1ccc(S(=O)(=O)N[C@@H](Cc2ccccc2)C(=O)CCl)cc1
Marked response: fulfilled

Exam item: Moving on to CC1(C)C=Cc2c(c3c(c4c(=O)c(-c5ccc(O)c(O)c5)coc24)OC(C)(C)CC3)O1
Marked response: fulfilled

Exam item: Moving on to O=C(CCc1ccc(O)cc1)c1c(O)cc(O)cc1O
Marked response: fulfilled
